Recorded AC50 by entry
target: Amine oxidase [flavin-containing] A (Homo sapiens, UniProt P21397); type: functional; further: assay procedure not described here
Sequence (P21397 whole entry): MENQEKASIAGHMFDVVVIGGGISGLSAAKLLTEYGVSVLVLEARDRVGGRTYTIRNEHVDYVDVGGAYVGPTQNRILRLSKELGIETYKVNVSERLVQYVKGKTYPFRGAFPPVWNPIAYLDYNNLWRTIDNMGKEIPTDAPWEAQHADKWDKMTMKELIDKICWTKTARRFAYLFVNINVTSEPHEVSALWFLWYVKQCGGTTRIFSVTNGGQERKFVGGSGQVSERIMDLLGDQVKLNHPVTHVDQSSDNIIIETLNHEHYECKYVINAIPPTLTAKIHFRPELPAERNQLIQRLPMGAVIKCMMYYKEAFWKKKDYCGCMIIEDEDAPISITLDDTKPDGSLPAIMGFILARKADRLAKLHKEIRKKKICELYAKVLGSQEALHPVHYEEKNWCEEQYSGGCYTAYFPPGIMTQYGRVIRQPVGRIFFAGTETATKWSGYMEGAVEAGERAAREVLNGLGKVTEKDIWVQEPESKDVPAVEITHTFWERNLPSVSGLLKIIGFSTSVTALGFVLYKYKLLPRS

Compound	Recorded Metric	Result
CC=CC(=O)N(CC)c1ccccc1C	AC50	> 10 µM
COc1cccc(C2(O)CCCCC2CN(C)C)c1 (stereo not drawn)	AC50	> 10 µM
COc1ccc(CCNCC(O)COc2cccc(C)c2)cc1OC (stereo not drawn)	AC50	> 10 µM
CNC1Cc2ccccc2N(C)c2ccccc21 (stereo not drawn)	AC50	> 30 µM
CCc1c(Cl)c(O)c(Cl)c(O)c1C(=O)O[C@H]1[C@H](O)[C@H](OC)[C@H](OC/C2=C\C=C\C[C@H](O)/C(C)=C/[C@H](CC)[C@@H](O[C@@H]3OC(C)(C)[C@@H](OC(=O)C(C)C)[C@H](O)[C@@H]3O)/C(C)=C/C(C)=C/C[C@@H]([C@@H](C)O)OC2=O)O[C@@H]1C	AC50	> 30 µM

Given CO/N=C(\C(=O)N[C@@H]1C(=O)N2C(C(=O)O)=C(CSc3nnnn3C)CS[C@H]12)c1csc(N)n1 , report its AC50 on Amine oxidase [flavin-containing] A (Homo sapiens, UniProt P21397). > 30 µM

Identify measured AC50 obtained with Amine oxidase [flavin-containing] A (Homo sapiens, UniProt P21397) for Cc1cn([C@H]2C=C[C@@H](CO)O2)c(=O)[nH]c1=O . > 30 µM

Report AC50 on Amine oxidase [flavin-containing] A (Homo sapiens, UniProt P21397) for this entry: Cn1c(=O)c2c(ncn2CC2OCCO2)n(C)c1=O > 30 µM

Answer with AC50 of CN1[C@@H]2CC[C@H]1C[C@@H](OC(c1ccccc1)c1ccccc1)C2 measured for Amine oxidase [flavin-containing] A (Homo sapiens, UniProt P21397). > 30 µM

Tell me AC50 of CN(C)CCC=C1c2ccccc2C=Cc2ccccc21 when tested on Amine oxidase [flavin-containing] A (Homo sapiens, UniProt P21397). > 10 µM

For Amine oxidase [flavin-containing] A (Homo sapiens, UniProt P21397), give AC50 of the listed compound: Cc1c(OCC(F)(F)F)ccnc1C[S+]([O-])c1nc2ccccc2[nH]1 (stereo not drawn) > 10 µM
